target: human TLR9 (Homo sapiens, UniProt Q9NR96); assay: TLR9 inhibition reporter assay (HEK-Blue, SEAP); conditions: HEK-Blue cells overexpressing human TLR9, ODN2006 5 nM, 22 hour incubation
Sequence (Q9NR96 26-1032): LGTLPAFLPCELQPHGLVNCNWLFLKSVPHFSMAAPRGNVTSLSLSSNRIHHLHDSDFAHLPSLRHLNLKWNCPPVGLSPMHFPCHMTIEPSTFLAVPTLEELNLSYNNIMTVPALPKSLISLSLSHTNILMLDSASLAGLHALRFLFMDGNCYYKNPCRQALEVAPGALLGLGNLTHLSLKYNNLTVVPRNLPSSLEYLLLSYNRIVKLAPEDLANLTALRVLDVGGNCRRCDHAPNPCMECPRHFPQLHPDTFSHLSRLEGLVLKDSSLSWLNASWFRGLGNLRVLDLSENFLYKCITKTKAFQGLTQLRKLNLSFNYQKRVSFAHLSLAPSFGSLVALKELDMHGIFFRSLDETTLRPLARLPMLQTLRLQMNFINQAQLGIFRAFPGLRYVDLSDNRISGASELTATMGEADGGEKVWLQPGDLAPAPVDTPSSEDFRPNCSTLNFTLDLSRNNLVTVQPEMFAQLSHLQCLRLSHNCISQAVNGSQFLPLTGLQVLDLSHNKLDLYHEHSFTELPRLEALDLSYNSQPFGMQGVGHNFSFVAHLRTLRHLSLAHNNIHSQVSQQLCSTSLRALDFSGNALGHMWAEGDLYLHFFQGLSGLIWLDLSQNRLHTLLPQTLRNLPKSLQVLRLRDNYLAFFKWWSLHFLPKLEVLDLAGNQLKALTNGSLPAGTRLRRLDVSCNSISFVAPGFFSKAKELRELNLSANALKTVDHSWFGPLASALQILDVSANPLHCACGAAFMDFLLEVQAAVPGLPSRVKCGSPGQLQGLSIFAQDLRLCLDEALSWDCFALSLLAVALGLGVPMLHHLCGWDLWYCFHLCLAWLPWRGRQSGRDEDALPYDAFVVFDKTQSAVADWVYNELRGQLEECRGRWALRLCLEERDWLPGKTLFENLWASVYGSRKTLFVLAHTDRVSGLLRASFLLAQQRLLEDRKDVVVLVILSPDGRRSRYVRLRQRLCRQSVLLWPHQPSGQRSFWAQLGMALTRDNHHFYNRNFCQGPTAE
pIC50: −log10 of the molar value.
MEASURED PARAMETER: pIC50

Cc1cc(-c2[nH]c3ccc(C4CCN(CC5(C)COC5)CC4)cc3c2C(C)C)cn2cnnc12 [Example 29]
5.36

(P) Cc1c(-c2[nH]c3ccc(C4CCN(CC(=O)N(C)C)CC4)cc3c2C(C)C)cn2cnnc2c1Cl [Example 49]
(Q) Cc1c(-c2[nH]c3ccc(C4CC(C)N(CCS(C)(=O)=O)C(C)C4)cc3c2C(C)C)cn2cnnc2c1C (single isomer, unassigned) [Example 110]
(R) Cc1c(-c2[nH]c3ccc(C4CC(C)N(C5COC5)C(C)C4)cc3c2C(C)C)cn2cnnc2c1C (stereo not shown) [Example 115]
Task: Please list the entries, largest pIC50 first. Order the labels as requested and list them.
Output: P, Q, R
(P: 6.02, Q: 5.18, R: 4.84)

* * *

molecular target: human TLR7 (Homo sapiens, UniProt Q9NYK1); experiment: TLR7 inhibition reporter assay (HEK-Blue, SEAP); conditions: HEK-Blue cells overexpressing human TLR7, gardiquimod 7.5 μM, 22 hour incubation
Sequence (Q9NYK1 27-1049): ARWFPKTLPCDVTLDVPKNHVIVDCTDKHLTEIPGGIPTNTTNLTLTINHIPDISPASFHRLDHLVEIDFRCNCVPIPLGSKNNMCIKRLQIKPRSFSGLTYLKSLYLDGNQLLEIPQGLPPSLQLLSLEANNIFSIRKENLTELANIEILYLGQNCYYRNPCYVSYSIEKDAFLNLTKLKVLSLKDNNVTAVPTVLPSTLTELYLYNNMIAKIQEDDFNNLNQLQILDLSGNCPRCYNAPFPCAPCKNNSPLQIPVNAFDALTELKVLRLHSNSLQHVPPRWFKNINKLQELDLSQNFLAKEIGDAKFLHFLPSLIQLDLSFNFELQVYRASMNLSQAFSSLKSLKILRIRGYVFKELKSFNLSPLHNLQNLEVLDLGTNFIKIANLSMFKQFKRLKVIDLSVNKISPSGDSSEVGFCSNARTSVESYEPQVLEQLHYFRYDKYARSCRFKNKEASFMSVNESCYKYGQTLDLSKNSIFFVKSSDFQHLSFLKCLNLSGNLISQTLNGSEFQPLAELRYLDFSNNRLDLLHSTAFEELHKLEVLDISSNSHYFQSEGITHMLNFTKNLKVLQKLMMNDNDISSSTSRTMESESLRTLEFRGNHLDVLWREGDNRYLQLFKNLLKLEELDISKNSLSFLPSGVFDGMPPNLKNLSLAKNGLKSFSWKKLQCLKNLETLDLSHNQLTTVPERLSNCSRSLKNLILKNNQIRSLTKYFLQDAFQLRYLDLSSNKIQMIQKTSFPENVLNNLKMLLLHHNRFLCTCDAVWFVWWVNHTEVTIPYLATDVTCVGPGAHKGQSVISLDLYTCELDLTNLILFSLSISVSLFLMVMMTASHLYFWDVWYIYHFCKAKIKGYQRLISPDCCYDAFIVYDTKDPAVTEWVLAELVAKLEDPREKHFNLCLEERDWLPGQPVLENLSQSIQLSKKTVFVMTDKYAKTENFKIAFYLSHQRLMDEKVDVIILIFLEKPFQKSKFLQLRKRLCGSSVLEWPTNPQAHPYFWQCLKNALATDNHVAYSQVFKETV
pIC50: −log10 of the molar value.
MEASURED PARAMETER: pIC50

Solved cases (2 shown):
Cc1c(-c2[nH]c3ccc(C4CCN(CCN5CCCC5=O)CC4)cc3c2C(C)C)cn2cnnc2c1C
8.30
Cc1c(-c2[nH]c3ccc(C4C[C@H]5CC[C@@H](C4)N5CC4(C)COC4)cc3c2C(C)C)cn2cnnc2c1C (single isomer, unassigned) [Example 120]
8.17

(P) COc1cc(-c2[nH]c3ccc(C4CCN(C(C)C)CC4)cc3c2C(C)C)cn2cnnc12
(Q) Cc1c(-c2[nH]c3ccc(C4CCN(CCN5CCOC5=O)CC4)cc3c2C(C)C)cn2cnnc2c1C
Task: Which value of pIC50 is smaller, the one for P or the one for Q ? Field: selected label. Fill in the label of the entry you choose.
Output: P
(P: 8.64, Q: 9.30)

* * *

target: human TLR7 (Homo sapiens, UniProt Q9NYK1); assay: TLR7 inhibition reporter assay (HEK-Blue, SEAP); conditions: HEK-Blue cells overexpressing human TLR7, gardiquimod 7.5 μM, 22 hour incubation
pIC50: −log10 of the molar value.
MEASURED PARAMETER: pIC50

Solved cases (5 shown):
Cc1cc(-c2[nH]c3ccc(C4CCN(CCCC(F)(F)F)CC4)cc3c2C(C)C)c(C)n2cnnc12 [Example 41]
7.59
Cc1c(-c2[nH]c3ccc(C4CCN(CCCC(F)(F)F)CC4)cc3c2C(C)C)cn2cnnc2c1C [Example 44]
8.77
COc1ncc(CN2CCC(c3ccc4[nH]c(-c5cn6cnnc6c(C)c5C)c(C(C)C)c4c3)CC2)cn1 [Example 89]
10.00
COc1cc(-c2[nH]c3ccc(C4CCN(C5CCC(F)(F)CC5)CC4)cc3c2C(C)C)cn2cnnc12 [Example 95]
9.15
Cc1cc(-c2[nH]c3ccc(C4CCN(CCS(C)(=O)=O)CC4)cc3c2C(C)C)cn2c(C)nnc12 [Example 32]
7.95

(P) Cc1cc(-c2[nH]c3ccc(C4CCN(CC5(C)COC5)CC4)cc3c2C(C)C)cn2cnnc12 [Example 29]
(Q) Cc1c(-c2[nH]c3ccc(C4CCN(CC(=O)N(C)C)CC4)cc3c2C(C)C)cn2cnnc2c1Cl [Example 49]
(R) Cc1c(-c2[nH]c3ccc(C4CCN(C5CCOC5)CC4)cc3c2C(C)C)cn2cnnc2c1C (single isomer, unassigned) [Example 103]
(S) Cc1c(-c2[nH]c3ccc(C4CC(C)N(CC(=O)N(C)C)C(C)C4)cc3c2C(C)C)cn2cnnc2c1C (stereo not drawn) [Example 112]
Task: Please list the entries, largest pIC50 first. Order the labels as requested and list them.
Output: P, Q, R, S
(P: 9.15, Q: 8.82, R: 8.29, S: 7.69)

(a) COc1cc(-c2[nH]c3ccc(C4CCN(CC(=O)N(C)C)CC4)cc3c2C(C)C)cn2cnnc12 [Example 54]
(b) Cc1c(-c2[nH]c3ccc(C4CCN(Cc5cn(C)nn5)CC4)cc3c2C(C)C)cn2cnnc2c1C [Example 83]
(c) COCCN1CCC(c2ccc3[nH]c(-c4cc(C)c5nncn5c4)c(C(C)C)c3c2)CC1 [Example 27]
(d) CNC(=O)CN1CCC(c2ccc3[nH]c(-c4cn5cnnc5cc4C)c(C(C)C)c3c2)CC1 [Example 15]
Task: Please list the entries, largest pIC50 first. Order the labels as requested and list them.
Output: c, a, b, d

* * *

target: human TLR7 (Homo sapiens, UniProt Q9NYK1); experiment: TLR7 inhibition reporter assay (HEK-Blue, SEAP); settings: HEK-Blue cells overexpressing human TLR7, gardiquimod 7.5 μM, 22 hour incubation
MEASURED PARAMETER: IC50 (nM)

Solved cases (5 shown):
COc1cc(-c2[nH]c3ccc(C4CCN(CCCC(F)(F)F)CC4)cc3c2C(C)C)cn2cnnc12
0.9
CNC(=O)CN1CCC(c2ccc3[nH]c(-c4ccc5nnc(C)n5c4)c(C(C)C)c3c2)CC1
44.7
Cc1cc(-c2[nH]c3ccc(C4CCN(C(=O)CN(C)C)CC4)cc3c2C(C)C)cn2cnnc12
2.5
Cc1cc(-c2[nH]c3ccc(C4CCN(C5COC5)CC4)cc3c2C(C)C)c(C)n2cnnc12
106
Cc1cc2nncn2cc1-c1[nH]c2ccc(C3CCN(C(=O)CN(C)C)CC3)cc2c1C(C)C
40.7

(a) Cc1c(-c2[nH]c3ccc(C4CC(C)N(C5COC5)C(C)C4)cc3c2C(C)C)cn2cnnc2c1C (centres unmarked)
(b) COc1cc(-c2[nH]c3ccc(C4CCN(C5CCOCC5)CC4)cc3c2C(C)C)cn2cnnc12
Task: Which value of IC50 is smaller, the one for a or the one for b ? Field: selected label. Fill in the label of the entry you choose.
Output: b

* * *

biological target: human TLR9 (Homo sapiens); assay: TLR9 inhibition reporter assay (HEK-Blue, SEAP); conditions: HEK-Blue cells overexpressing human TLR9, ODN2006 5 nM, 22 hour incubation
pIC50: −log10 of the molar value.
MEASURED PARAMETER: pIC50

(A) Cc1c(-c2[nH]c3ccc(C4CCN(C5CCOC5)CC4)cc3c2C(C)C)cn2cnnc2c1C (single isomer, unassigned) [Example 103]
(B) Cc1cc(-c2[nH]c3ccc(C4CCN(C5COC5)CC4)cc3c2C(C)C)c(C)n2cnnc12 [Example 76]
Task: Which value of pIC50 is smaller, the one for A or the one for B ? Field: selected label. Fill in the label of the entry you choose.
Output: B

(A) Cc1cc(-c2[nH]c3ccc(C4CCN(C5COC5)CC4)cc3c2C(C)C)cn2cnnc12 [Example 63]
(B) Cc1c(-c2[nH]c3ccc(C4CCN(C(=O)CN(C)C)CC4)cc3c2C(C)C)ccc2nncn12 [Example 108]
Task: Lab note: check whether A or B shows the higher recorded pIC50. Field: selected label. Fill in the label of the entry you choose.
Output: B

(1) Cc1cc(-c2[nH]c3ccc(C4CCN(CC#N)CC4)cc3c2C(C)C)cn2cnnc12 [Example 37]
(2) Cc1cc(-c2[nH]c3ccc(C4CCN(C5CCOCC5)CC4)cc3c2C(C)C)cn2c(C)nnc12 [Example 73]
(3) Cc1c(-c2[nH]c3ccc(C4CCN(CC(=O)N(C)C)CC4)cc3c2C(C)C)cn2cnnc2c1C [Example 39]
Task: Please list the entries, largest pIC50 first. Order the labels as requested and list them.
Output: 2, 1, 3

* * *

target: human TLR9 (Homo sapiens, UniProt Q9NR96); assay: TLR9 inhibition reporter assay (HEK-Blue, SEAP); conditions: HEK-Blue cells overexpressing human TLR9, ODN2006 5 nM, 22 hour incubation
pIC50: −log10 of the molar value.
MEASURED PARAMETER: pIC50

(1) CC(C)c1c(-c2ccc3nncn3c2)[nH]c2ccc(C3CCNCC3)cc12 [Example 1]
(2) Cc1cc(-c2[nH]c3ccc(C4CCN(CC(C)(C)O)CC4)cc3c2C(C)C)c(C)n2cnnc12 [Example 59]
Task: Which value of pIC50 is smaller, the one for 1 or the one for 2 ? Field: selected label. Fill in the label of the entry you choose.
Output: 2
(2: 5.46, 1: 6.04)

(I) Cc1cc(-c2[nH]c3ccc(C4CCN(C(=O)CN(C)C)CC4)cc3c2C(C)C)cn2cnnc12 [Example 104]
(II) COc1cc(-c2[nH]c3ccc(C4CCN(C5CCC(F)(F)CC5)CC4)cc3c2C(C)C)cn2cnnc12 [Example 95]
(III) Cc1cc(-c2[nH]c3ccc(C4CCN(Cc5ncn(C)n5)CC4)cc3c2C(C)C)cn2cnnc12 [Example 21]
Task: Sort entries by pIC50 from minimum to maximum value. Order the labels as requested and list them.
Output: III, II, I
